Reference source: PubChem BioAssay AID1963834

Consider the following molecules and their measured viability, T/C readings.
# System: 873145-292-R-J1-PDC complex spheroid viability
# ASSAY: Anticancer human tumor 873145-292-R-J1-PDC patient-derived renal clear cell carcinoma cell line growth inhibition [POLQ]
# PROTOCOL CONDITIONS: second compound 10 µM; first compound 0.316 µM; stronger effect = lower value
Field format: number, assumed %, no unit text.

Past entries and their recorded results:
CC(C)n1c(=O)n(C)c2cnc3cc(F)c(-c4ccc(OCCCN5CCCCC5)nc4)cc3c21 + Cc1cccc(N(C)C(=O)C2C(O)CCN2c2nc(C)cc(C(F)(F)F)c2C#N)c1 = 104
COc1cccc(OCCCN)c1-c1cc(Nc2cnc(C#N)cn2)n[nH]1 + Cc1cccc(N(C)C(=O)C2C(O)CCN2c2nc(C)cc(C(F)(F)F)c2C#N)c1 = 88.6
CCc1cc2c(N3CCc4c(cc(Cn5ccnc5)cc4-c4cn(C)nc4C(F)(F)F)C3=O)cc(C)nc2c(OC)n1 + COC1C(OC(N)=O)C(O)C(Oc2ccc3c(O)c(NC(=O)c4ccc(O)c(CC=C(C)C)c4)c(=O)oc3c2C)OC1(C)C = 101

Could you now consider this next molecule?
Prompt: Given the molecule CCCS(=O)(=O)Nc1ccc(F)c(C(=O)c2c[nH]c3ncc(-c4ccc(Cl)cc4)cc23)c1F + COC1C(OC(N)=O)C(O)C(Oc2ccc3c(O)c(NC(=O)c4ccc(O)c(CC=C(C)C)c4)c(=O)oc3c2C)OC1(C)C , what is its reported viability, T/C?
Completion: 98.8

----------
Consider the following compounds and their measured viability, T/C readings.
# System: 873145-292-R-J1-PDC complex spheroid viability
# ASSAY: Anticancer human tumor 873145-292-R-J1-PDC cell line growth inhibition [POLQ];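 also: luminescence signal used as surrogate for viable cell content; spheroids exposed to compounds for 7 days before viability readout; 100% = DMSO vehicle control viability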
# PROTOCOL CONDITIONS: second compound 1 µM; first compound 1 µM; stronger effect = lower value
Field format: number, assumed %, no unit text.

COc1cc(C2c3cc4c(cc3C(OC3OC5COC(C)OC5C(O)C3O)C3COC(=O)C23)OCO4)cc(OC)c1O (stereo not given) + COC1C(OC(N)=O)C(O)C(Oc2ccc3c(O)c(NC(=O)c4ccc(O)c(CC=C(C)C)c4)c(=O)oc3c2C)OC1(C)C = 86.2
Nc1ccn(C2OC(CO)C(O)C2(F)F)c(=O)n1 (stereo not given) + COC1C(OC(N)=O)C(O)C(Oc2ccc3c(O)c(NC(=O)c4ccc(O)c(CC=C(C)C)c4)c(=O)oc3c2C)OC1(C)C = 48.8
CC1COCCN1c1cc(C2(S(C)(=N)=O)CC2)nc(-c2ccnc3[nH]ccc23)n1 (stereo not given) + Nc1ccc(C#CCN(C(=O)Cc2ncc(C(F)(F)F)cc2C(F)(F)F)c2ccc(F)cc2)nn1 = 88.5

Prompt: Given the entry C#Cc1c(F)ccc2cc(O)cc(-c3ncc4c(N5CC6CCC(C5)N6)nc(OCC56CCCN5CC(F)C6)nc4c3F)c12 (stereo not given) + COC1C(OC(N)=O)C(O)C(Oc2ccc3c(O)c(NC(=O)c4ccc(O)c(CC=C(C)C)c4)c(=O)oc3c2C)OC1(C)C , what viability, T/C was observed with 873145-292-R-J1-PDC complex spheroid viability?
Completion: 76

Prompt: Given the entry O=C(c1cc(Cc2n[nH]c(=O)c3ccccc23)ccc1F)N1CCN(C(=O)C2CC2)CC1 + Cc1cccc(N(C)C(=O)C2C(O)CCN2c2nc(C)cc(C(F)(F)F)c2C#N)c1 , what viability, T/C was observed with 873145-292-R-J1-PDC complex spheroid viability?
Completion: 106
